B1: Post-transcriptional regulator MTA (Human herpesvirus 8), Q2HR75 (parent)
chain: MVQAMIDMDIMKGILEDSVSSSEFDESRDDETDAPTLEDEQLSEPAEPPADERIRGTQSAQGIPPPLGRIPKKSQGRSQLRSEIQFCSPLSRPRSPSPVNRYGKKIKFGTAGQNTRPPPEKRPRRRPRDRLQYGRTTRGGQCRAAPKRATRRPQVNCQRQDDDVRQGVSDAVKKLRLPASMIIDGESPRFDDSIIPRHHGACFNVFIPAPPSHVPEVFTDRDITALIRAGGKDDELINKKISAKKIDHLHRQMLSFVTSRHNQAYWVSCRRETAAAGGLQTLGAFVEEQMTWAQTVVRHGGWFDEKDIDIILDTAIFVCNAFVTRFRLLHLSCVFDKQSELALIKQVAYLVAMGNRLVEACNLLGEVKLNFRGGLLLAFVLTIPGMQSRRSISARGQELFRTLLEYYRPGDVMGLLNVIVMEHHSLCRNSECAAATRAAMGSAKFNKGLFFYPLS

- Variants of: B1
- measurement context: with thoc4_human ALYREF
measurement kind: effect of a mutation on the interaction

sequence_change=R143D measurement_kind="effect of a mutation on the interaction" observed_result="disrupting interaction"
sequence_change=K147E measurement_kind="effect of a mutation on the interaction" observed_result="disrupting interaction"
sequence_change=R152G measurement_kind="effect of a mutation on the interaction" observed_result="disrupting interaction"
sequence_change=R124Q measurement_kind="effect of a mutation on the interaction" observed_result="disrupting interaction"
sequence_change=R125G measurement_kind="effect of a mutation on the interaction" observed_result="disrupting interaction"
sequence_change=R128S measurement_kind="effect of a mutation on the interaction" observed_result="disrupting interaction"
sequence_change=R130G measurement_kind="effect of a mutation on the interaction" observed_result="disrupting interaction"
sequence_change=K121M measurement_kind="effect of a mutation on the interaction" observed_result="disrupting interaction"
sequence_change=R126E measurement_kind="effect of a mutation on the interaction" observed_result="disrupting interaction"
sequence_change=R122S measurement_kind="effect of a mutation on the interaction" observed_result="disrupting interaction"
sequence_change=R148Q measurement_kind="effect of a mutation on the interaction" observed_result="disrupting interaction"
sequence_change=R151D measurement_kind="effect of a mutation on the interaction" observed_result="disrupting interaction"

This collection of values is drawn from IntAct's records for PubMed 19850040.
